Listing of recorded relative viability EC50 by entry.
Test system: HepG2
Assay: relative viability EC50 (midpoint between 100% and the lowest measured viability); higher = less toxic
Details: 72 h

{"Compound": "C[C@@H](O)[C@H]1C(=O)N2C(C(=O)O)=C(SCCNC=N)C[C@H]12", "Unit symbol": "µM", "Result modifier": ">", "relative viability EC50": 10}
{"Compound": "C[C@@H]1COCCN1c1cc(C2([S@](C)(=N)=O)CC2)nc(-c2ccnc3[nH]ccc23)n1", "Unit symbol": "µM", "Result modifier": "=", "relative viability EC50": 0.998}
{"Compound": "O=C(/C=C\\n1cnc(-c2cc(C(F)(F)F)cc(C(F)(F)F)c2)n1)NNc1cnccn1 [selinexor]", "Unit symbol": "µM", "Result modifier": "=", "relative viability EC50": 0.0686}
